Tested on: MS2 coat protein
Test Name: apparent KD of MS2 coat protein; designed switch direction (-1 OFF switch, 1 ON switch): -1; higher = weaker reporter binding
Setup Conditions: input ligand: none
Metric: apparent KD of MS2 coat protein (nM)
Quick reminder: number only, in nM, skip the unit.

What value of measured apparent KD of MS2 coat protein is listed for AGGUCUCGUGUCAGGAUAUAUUUUCUCUGAGCAAGGUAGAAGGGACAUGAGGAUCACCCAUGUCUGAGGAAAAU [Eternabot (L1) Solution 34] (Eterna round: R97, puzzle: Brourd's mod of Exclusion 4) ?
19.1

Value lookup for apparent KD of MS2 coat protein; key = AACAGGUCAGGAUAUACAUGAGGAUCACCCAUGUAGACUUCUGGUCUACCGAGACCGUGUAGAAGGGACCUGAA [Exclusion 3 (MOD3 of #98 Marzena11)] (Eterna round: R97, puzzle: Exclusion 3)
35.7

For GGGUGACAUGAGGAUCACCCAUGUCAGGAUAUGCUUCGGCUUCGGAAAUGAAGUUGAAGUAGAAGGGACUGCCC [-30.1, -29.1 kcal, A 27% sequence 3 bis] (Eterna round: R97, puzzle: Exclusion 1) , what is its reported apparent KD of MS2 coat protein?
42.2

For GCACUGCGAGGAUAUACAUGAGGAUCACCCAUGUAUCGGUAGUCAAGGUUAAUUUAAGGUAGAAGGCGCGUAAA [JR_Ex3_Sub005] (Eterna round: R97, puzzle: Exclusion 3) , what is its reported apparent KD of MS2 coat protein?
23.5

Record request: apparent KD of MS2 coat protein value, item CAUGUCCAACGAGGAUAUGGGAAAGGAAGUGUACCAGAAGGCGUACGGACAUGAGGAUCACCCAUGUCGCGCGGUGCGAUGUGG [MOD2 Nando EXNG 1.1] (Eterna round: R96, puzzle: Exclusion NG 1)
98.9

Query (sequence): GGACGGUUAGUUAGGAUAUGCUCUACCUCGGUAGAGCAGAAGGGACAUGAGGAUCACCCAUGUGAUAACUGUUC [Omei Ex4B B35] (Eterna round: R97, puzzle: Brourd's mod of Exclusion 4) ; field requested: apparent KD of MS2 coat protein
20.5

---
Which apparent KD of MS2 coat protein is listed for AAACUGAGGCUUUGCUUUAGUCGUACAUGAGGAUCACCCAUGUAGGAUAUGGUAGGCUUUGCUUACCAGAAGGACAGAGUGAUC [JL EXNG3 1.20] (Eterna round: R96, puzzle: Exclusion NG 3) ?
279

Request the reported apparent KD of MS2 coat protein associated with UCUUUCAUUGUGAGGAUAUGCCCAAAUAAAAGCGGGCAGAAGGCACAUGAGGAUCACCCAUGUCCUGCGGUUUU [salish99_bmx4_r4_149] (Eterna round: R97, puzzle: Brourd's mod of Exclusion 4)
40.7

Returns the measured apparent KD of MS2 coat protein for the input sequence. Input: GGCAUCAUCUGGUCCUGAUACAUGAGGAUCACCCAUGUUCUACUGUAGGUCGUAAGCAGCUUACCCUCUUAGGCACA [JR_Sensorv2_tov_Sub1249] (Eterna round: R96, puzzle: Sensor v2, turn-off variant)
308

* * *

// reported apparent KD of MS2 coat protein for each item listed
Tested on: MS2 coat protein
Test Name: apparent KD of MS2 coat protein; higher = weaker reporter binding
Setup Conditions: Eterna round: R107; input ligand: tryptophan 2.4 mM
Value expressed in nM; do not type the unit.

Checklist item: apparent KD of MS2 coat protein tested on MS2 coat protein, entry AAUUUUAACGGAAGGAGCGUCACGUAAUUCAUACAUGAGGAUCACCCAUGUUAGUUGUAGAGACAGGUAGGUCGCCGUUAUUUGA [JR_AAArginiB_Sub025] , value?
17

Give the reported apparent KD of MS2 coat protein for UAUAUAUAGAUGGAUACCAGCAGAGAAAACGUUUAUCCUAACAUGAGGAUCACCCAUGUAUGCCCUUGGCAGCUGUUUAUAUAUA [8.I] (system: MS2 coat protein).
22.6

***
What is its apparent KD of MS2 coat protein for MS2 coat protein? Entry: AGGUGCAAAGCACCCUCUGGCCCUCGUGAAGGAGCGCUCGAAAGAGCAGGUAGGUCGCAUGAGGAUCACCCAUGUGAGCCAGAGA [Arg A Exc A v1]
56.2

I'm curious: which apparent KD of MS2 coat protein was measured for GGAUAGAUAGGAGAUACCAGACACAUUAACAUGAGGAUCACCCAUGUGUCUGCACUAAGUGUCCCUUGGCAGCUCGGAGAUCUGA [Same State - Theophylline B] tested on MS2 coat protein?
31.9

Test system MS2 coat protein; read-out apparent KD of MS2 coat protein; what value for AACUGGACCCGUGAUACCAGAGACAUGAGGAUCACCCAUGUACAUGAGGAUCACCCAUGUCUCCCUUGGCAGCACCGCAGGGAGC [Exclusion Theophylline B GF 13] ?
128

Short answer please: apparent KD of MS2 coat protein, MS2 coat protein, entry AAUCGCCUGGGUCGCAUCCUUGCUCCGGAUACCAGUCAAUAGUUGGACCCUUGGCAGCCGUAGACAUGAGGAUCACCCAUGUAUA [theeternabot_exclusion_MS2_Theo_A_42]
55.9

* * *

System: MS2 coat protein
Test Name: apparent KD of MS2 coat protein; designed switch direction (-1 OFF switch, 1 ON switch): 1; higher = weaker reporter binding
Setup Conditions: input ligand: FMN 200 uM
Metric: apparent KD of MS2 coat protein (nM)
Write down the numeric answer in nM and omit the unit.

Recorded results for 3 sequences are shown here.
Look up apparent KD of MS2 coat protein for this sequence: AUUACUAACAUAGGAUAUCAUGCGAAAAUUGCGUGAGAAGGGUGGACGCUGUCAUUCACGGAAGACAUGAGGAUCACCCAUGUC [SameState NG1 #73] (Eterna round: R96, puzzle: Same State NG 1)
170

Request the reported apparent KD of MS2 coat protein associated with ACUCUCACAGUAGGAUAUGUAGGAUAUGCCUACAUGAGGAUCACCCAUGUAAACAUGGCAGAAGGAUAGAAGGACUUACAUUGG [pwkr ssNG2 2FMN + 1F5.1] (Eterna round: R96, puzzle: Same State NG 2)
495

Item UAUGAAUAGCAAGGAUAUUGAUAACAUGAGGAUCACCCAUGUAAUUGAUUGAGAAAGAUUAGUUACAAGAAGGUGCAAUUGAUU [JR_SSNG2_Sub034] (Eterna round: R96, puzzle: Same State NG 2) has what recorded apparent KD of MS2 coat protein?
282

Attention now shifts to the item below.
// returns reported apparent KD of MS2 coat protein for input GUUAGGAAUCUAGCAAACAUGAGGAUCACCCAUGUAAGUGGGAAGGAUAUGGUACAGAAACUGUACCAGAAGGUCUUAUUAAUU [Omei SS(NG) 3 AV1] (Eterna round: R96, puzzle: Same State NG 3)
128

* * *

Test system: MS2 coat protein
Test Name: apparent KD of MS2 coat protein; designed switch direction (-1 OFF switch, 1 ON switch): 1; higher = weaker reporter binding
Setup Conditions: input ligand: FMN 200 uM
Parameter threshold = 40 nM. Response is class 1 when apparent KD of MS2 coat protein meets or exceeds it, else class 0.

Does the sequence GUAGCAUACCGAGGAUAUUCAUAUUACAUGAGGAUCACCCAUGUGGCCAGCAUUAGCUGGCCUUGGGAGAAGGCGGAAUGCUAC [Xeonanis - 20 Mod49] (Eterna round: R96, puzzle: Same State NG 2) have recorded apparent KD of MS2 coat protein that is 40 nM or more?
class 1

Others:
Does the sequence UGAAUAGUUACAGGAUAUCAUGCGAAAAUUGCGUGAGAAGGGUGGGUGUUGUGCGCUAAGUGCCACAUGAGGAUCACCCAUGUU [SameState NG1 #38] (Eterna round: R96, puzzle: Same State NG 1) have recorded apparent KD of MS2 coat protein that is 40 nM or more?
class 1

Entry GUGGUGAAUUAAGGAUAUCGAGUCAAGAUGUUAAACAUGAGGAUCACCCAUGUGGGUUGCGGUAUCGAGAAGGUAAUUUACGGG [salish99_SSNG2_r04_506] (Eterna round: R96, puzzle: Same State NG 2) : is its apparent KD of MS2 coat protein no less than 40 nM?
class 0

API: above_or_equal(metric=apparent KD of MS2 coat protein, cutoff=40 nM) for item GUCCAAAACACAGGAUAUCCCAGUCAUGAUCUGGGAGAAGGGUGGCCACAUGAGGAUCACCCAUGUGAAGUGCGAGAGGCACGA [Inerraat] (Eterna round: R96, puzzle: Same State NG 1)
class 1

# bool: apparent KD of MS2 coat protein of GCUGCAAUAAACGCCUACAUGAGGAUCACCCAUGUAUGUAGGCAGGAUAUCGUAUGCAAAGCAUACGAGAAGGGCUGUAGUAGC [Mat - Same State NG 3 - JL Mod - D39] (Eterna round: R96, puzzle: Same State NG 3) >= 40 nM
class 1

Could you tell me if the measured apparent KD of MS2 coat protein of CCGGUUUAUGGAGGAUAUGGAGCCUUAUUGGCUCCAGAAGGCUAAUAACAUGAGGAUCACCCAUGUCCGGCGGUCAAUAGACCG [Eli NG1ss - 57] (Eterna round: R96, puzzle: Same State NG 1) reaches 40 nM or more?
class 0

Entry UUCUCCUUUUUUUACAUGAGGAUCACCCAUGUUUUUCUUACGUAGGAUAUCGUUGUUUUUUUUUACGAGAAGGACGUAGUAAGU [JR_SSND3_Sub060] (Eterna round: R96, puzzle: Same State NG 3) : is its apparent KD of MS2 coat protein no less than 40 nM?
class 0

# check: apparent KD of MS2 coat protein of GUAGCAUACCGAGGAUAUUCAUUACAUGAGGAUCACCCAUGUUUUAUAGGUCGAUUACGACCUUGGGAGAAGGCGGAAUGCUAC [Xeonanis - 20 Mod30] (Eterna round: R96, puzzle: Same State NG 2) is greater than or equal to 40 nM
class 0

Has AGCUAUUACGAAGGAUAUUCUGACAUGAGGAUCACCCAUGUCUUCAUGAUUUAUUGUGAUCACAUGAAGAAGGUUGUACUAACA [SameState NG2 #25] (Eterna round: R96, puzzle: Same State NG 2) a recorded apparent KD of MS2 coat protein greater than or equal to 40 nM?
class 1

Sourced from the supplement of paper PMC9170038
